- System: 556581-035-R-J1 tumor spheroid viability, % test/control;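 note: spheroids exposed to compounds for 7 days before viability read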
- assay protocol: Anticancer human tumor 556581-035-R-J1 patient-derived ovarian carcinoma cell line growth inhibition
- condition description: second compound 0.003 µM; first compound 3.16 µM; stronger effect = lower value; spheroids with HUVEC and MSC
quantity: viability, T/C (%)
Numbers only, in %.

Record excerpt, results attached:
COc1ccc([C@@H](O)c2cc(-c3ncnc4cc(N5CCOCC5)ccc34)c(F)cc2Cl)nn1 + COc1cc2c(cc1O)CCNC21CSC2c3c(OC(C)=O)c(C)c4c(c3C(COC1=O)N1C(O)C3Cc5cc(C)c(OC)c(O)c5C(C21)N3C)OCO4 :: 0.82
[2H]c1nc(C)nc([2H])c1-c1cc(NC[C@@H](C)c2cccc3c(C(=O)NC)ccnc23)ncn1 + CC[C@@]1(O)C(=O)OCc2c1cc1n(c2=O)Cc2cc3c(CN(C)C)c(O)ccc3nc2-1 :: 102
COc1ccc([C@@H](O)c2cc(-c3ncnc4cc(N5CCOCC5)ccc34)c(F)cc2Cl)nn1 + CC[C@@]1(O)C(=O)OCc2c1cc1n(c2=O)Cc2cc3c(CN(C)C)c(O)ccc3nc2-1 :: 40.5
CC1COCCN1c1cc(-c2ccnn2C)c2ccnc(-c3ccn[nH]3)c2n1 (stereo not given) + CC[C@@]1(O)C(=O)OCc2c1cc1n(c2=O)Cc2cc3c(CN(C)C)c(O)ccc3nc2-1 :: 33.7

Query molecule follows.
Short answer for COc1cc(C)[nH]c(=O)c1CN1CCc2c(Cl)cc(C(OC)C3COC3)c(Cl)c2C1=O (stereo not given) + CC[C@@]1(O)C(=O)OCc2c1cc1n(c2=O)Cc2cc3c(CN(C)C)c(O)ccc3nc2-1 : viability, T/C was 101

meta.source: PubChem BioAssay AID1845199
